Test system: Escherichia coli TOP10
Test: shrunken log2 fold change of peptide-encoding DNA abundance (4.5 h post-induction vs induction); higher = less antimicrobial activity (less host growth inhibition)
Settings: time post-induction: 4.5 h; library: site-saturation at positions 5, 18, 19, 20
quantity: shrunken log2 fold change
Reply with the value as a number alone.

Please review the following examples before continuing.
1) RRIRTRPPRLPRPRPRPLHFPRP -0.189
2) RRIRMRPPRLPRPRPRPDCSPRP 0.172
3) RRIRYRPPRLPRPRPRPSARPRP -0.137
4) RRIRIRPPRLPRPRPRPRFNPRP -0.173
5) RRIRLRPPRLPRPRPRPWGVPRP 0.0612
6) RRIRVRPPRLPRPRPRPMAEPRP 2.52
7) RRIRMRPPRLPRPRPRPTYGPRP -0.00932
8) RRIRMRPPRLPRPRPRPGCWPRP 0.984

Record `RRIRCRPPRLPRPRPRPCFDPRP` : what is its shrunken log2 fold change with Escherichia coli TOP10?
-0.526

Record `RRIRGRPPRLPRPRPRPIARPRP` : what is its shrunken log2 fold change with Escherichia coli TOP10?
0.792

Record `RRIRTRPPRLPRPRPRPRQSPRP` : what is its shrunken log2 fold change with Escherichia coli TOP10?
0.159

Record `RRIRYRPPRLPRPRPRPCDVPRP` : what is its shrunken log2 fold change with Escherichia coli TOP10?
-0.739

Record `RRIRERPPRLPRPRPRPHATPRP` : what is its shrunken log2 fold change with Escherichia coli TOP10?
0.238

Record `RRIRVRPPRLPRPRPRPYGEPRP` : what is its shrunken log2 fold change with Escherichia coli TOP10?
-0.204

Record `RRIRDRPPRLPRPRPRPYCMPRP` : what is its shrunken log2 fold change with Escherichia coli TOP10?
-0.28

Record `RRIRFRPPRLPRPRPRPQVEPRP` : what is its shrunken log2 fold change with Escherichia coli TOP10?
-0.0419

Record `RRIRHRPPRLPRPRPRPDPMPRP` : what is its shrunken log2 fold change with Escherichia coli TOP10?
0.0718

Record `RRIRGRPPRLPRPRPRPGLGPRP` : what is its shrunken log2 fold change with Escherichia coli TOP10?
1.67

Record `RRIRHRPPRLPRPRPRPKYKPRP` : what is its shrunken log2 fold change with Escherichia coli TOP10?
-0.679

Record `RRIRWRPPRLPRPRPRPCKEPRP` : what is its shrunken log2 fold change with Escherichia coli TOP10?
-0.125

Record `RRIRLRPPRLPRPRPRPWWSPRP` : what is its shrunken log2 fold change with Escherichia coli TOP10?
-0.0019

Record `RRIRCRPPRLPRPRPRPHYLPRP` : what is its shrunken log2 fold change with Escherichia coli TOP10?
-0.574

Record `RRIRTRPPRLPRPRPRPIDFPRP` : what is its shrunken log2 fold change with Escherichia coli TOP10?
0.0107

Record `RRIRKRPPRLPRPRPRPLPFPRP` : what is its shrunken log2 fold change with Escherichia coli TOP10?
-0.11

Record `RRIRVRPPRLPRPRPRPIHCPRP` : what is its shrunken log2 fold change with Escherichia coli TOP10?
0.0605

Record `RRIRPRPPRLPRPRPRPNLKPRP` : what is its shrunken log2 fold change with Escherichia coli TOP10?
-0.0156

====

Test system: Escherichia coli TOP10;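 also: peptides expressed intracellularly from a pBAD plasmid library in pooled LB shake-flask culture, induced with 0.3% L-arabinose, DNA abundance read by NGS, three biological replicates, DESeq2 with apeglm shrinkage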
Test: shrunken log2 fold change of peptide-encoding DNA abundance (4.5 h post-induction vs induction); higher = less antimicrobial activity (less host growth inhibition)
Conditions: time post-induction: 4.5 h; library: site-saturation at positions 5, 18, 19, 20
quantity: shrunken log2 fold change

1) RRIRGRPPRLPRPRPRPAVRPRP 0.312

What value of measured shrunken log2 fold change is listed for `RRIRPRPPRLPRPRPRPSQLPRP` ?
-0.0897

What value of measured shrunken log2 fold change is listed for `RRIRYRPPRLPRPRPRPSAIPRP` ?
-0.939

What value of measured shrunken log2 fold change is listed for `RRIRHRPPRLPRPRPRPSTWPRP` ?
-0.674

What value of measured shrunken log2 fold change is listed for `RRIRNRPPRLPRPRPRPEMQPRP` ?
-0.00804
